Assay: CARIV-A-001 Part B: cross-over IV infusion over 2 hours vs oral tablet 100 mg/kg in healthy subjects
Format: in vivo, human
Recorded Conditions: both sexes, human, plasma; IV, 8 mg/kg, N 10; read-out: aucL, Median
Value Kind: AUC (ng·h/mL)
Just the number in ng·h/mL, nothing appended.

QUERY: # query: AUC of entry NC(=O)N[C@@H](CCC(=O)O)C(=O)O [carglumic acid, N-carbamoyl-L-glutamic acid]
RESULT: 22000

###

Assay: clinical
Recorded Conditions: both sexes, human, in vivo, iv, Vd, Median
Value Kind: Vd
# include the unit after the value

QUERY: # query: Vd of entry NC(=O)N[C@@H](CCC(=O)O)C(=O)O [carglumic acid, N-carbamoyl-L-glutamic acid]
RESULT: 12.8 L/kg

###

Assay: CARIV-A-001 Part A: single ascending IV doses over 20 minutes in healthy subjects
Type: in vivo, human
Recorded Conditions: both sexes, human, plasma and urine, iv, 3.5 mg/kg, IV over 20 minutes, 3.5 mg/kg; read-out: Renal Clearance (RCl), Range
Value Kind: CL renal

QUERY: # query: CL renal of entry NC(=O)N[C@@H](CCC(=O)O)C(=O)O [carglumic acid, N-carbamoyl-L-glutamic acid]
RESULT: 3.33 to 5 mL/min/kg

###

Assay: CARIV-A-001 Part A: single ascending IV doses over 20 minutes in healthy subjects
Type: in vivo, human
Recorded Conditions: both sexes, human, plasma, iv, after IV administration; read-out: Terminal half-life, range
Value Kind: half-life

QUERY: # query: half-life of entry NC(=O)N[C@@H](CCC(=O)O)C(=O)O [carglumic acid, N-carbamoyl-L-glutamic acid]
RESULT: 7 to 36 h

###

Assay: CARIV-A-001 Part A: single ascending IV doses over 20 minutes in healthy subjects
Type: in vivo, human
Recorded Conditions: both sexes, human, plasma and urine, iv, 3.5 mg/kg, IV over 20 minutes, 3.5 mg/kg; read-out: Renal Clearance (RCl), Median
Value Kind: CL renal (mL/min/kg)
Just the number in mL/min/kg, nothing appended.

QUERY: # query: CL renal of entry "NC(=O)N[C@@H](CCC(=O)O)C(=O)O"
RESULT: 4.17

###

Assay: CARIV-A-001 Part B: cross-over IV infusion over 2 hours vs oral tablet 100 mg/kg in healthy subjects
Format: in vivo, human
Recorded Conditions: both sexes, human, plasma; IV, 12 mg/kg, N 2; read-out: aucL, Median
Value Kind: AUC (ng·h/mL)
Just the number in ng·h/mL, nothing appended.

QUERY: # query: AUC of entry NC(=O)N[C@@H](CCC(=O)O)C(=O)O [carglumic acid, N-carbamoyl-L-glutamic acid]
RESULT: 52100

###

Assay: CARIV-A-001 Part A: single ascending IV doses over 20 minutes in healthy subjects
Assay type: in vivo, human
Recorded Conditions: both sexes, human, plasma, iv, 5 mg/kg, IV over 20 minutes, 5.0 mg/kg; read-out: T1/2, Median
Value Kind: half-life (min)
Just the number in min, nothing appended.

QUERY: # query: half-life of entry "NC(=O)N[C@@H](CCC(=O)O)C(=O)O"
RESULT: 1280

###

Assay: CARIV-A-001 Part A: single ascending IV doses over 20 minutes in healthy subjects
Type: in vivo, human
Recorded Conditions: both sexes, human, plasma, iv, 5 mg/kg, IV over 20 minutes, 5.0 mg/kg; read-out: Cmax, Range
Value Kind: Cmax

QUERY: # query: Cmax of entry NC(=O)N[C@@H](CCC(=O)O)C(=O)O [carglumic acid, N-carbamoyl-L-glutamic acid]
RESULT: 8420 to 19100 ng/mL
